Recorded values, source ChEMBL document CHEMBL1671865.

tested on: Clostridioides difficile; assay: Antimicrobial activity against Clostridium difficile harboring other ribotypes by CLSI agar dilution method; assay type: functional
Recorded Endpoint: MIC50 (mg/L)
Respond numerically; units are mg/L and should not be typed.

Notebook: COc1c(N2CCNC(C)C2)c(F)cc2c(=O)c(C(=O)O)cn(C3CC3)c12 (stereo not given) , MIC50 read as 2

Recorded result, CCS(=O)(=O)CCn1c([N+](=O)[O-])cnc1C , MIC50: 0.25

Entry CN[C@H](CC(C)C)C(=O)N[C@H]1C(=O)N[C@@H](CC(N)=O)C(=O)N[C@H]2C(=O)N[C@H]3C(=O)N[C@H](C(=O)N[C@H](C(=O)O)c4cc(O)cc(O)c4-c4cc3ccc4O)[C@H](O)c3ccc(c(Cl)c3)Oc3cc2cc(c3O[C@@H]2O[C@H](CO)[C@@H](O)[C@H](O)[C@H]2O[C@H]2C[C@](C)(N)[C@H](O)[C@H](C)O2)Oc2ccc(cc2Cl)[C@H]1O ; MIC50 = 1

For this compound ( CCC[C@@H]1C[C@@H](C(=O)N[C@@H]([C@H]2O[C@H](SC)[C@H](O)[C@@H](O)[C@H]2O)[C@H](C)Cl)N(C)C1 ), measured MIC50 is 4

The recorded MIC50 for entry Cc1ncc([N+](=O)[O-])n1CCO equals 0.25
